Reported pIC50 values are given for each entry in this list.
Target: Trypsin (Bos taurus)
Experiment: In vitro for inhibition of purified bovine trypsin.
pIC50: −log10 of the molar value.
experimental_readout: pIC50

                         structure_notation  measurement_qualifier  numeric_readout
0  CN(c1nc2ccccc2c(=O)o1)S(=O)(=O)c1ccc(Cl)c(Cl)c1                      =             5.08
1  COc1ccc(S(=O)(=O)N(C)c2nc3ccccc3c(=O)s2)cc1                      <             3.70
2  CN(c1nc2ccccc2c(=O)o1)S(=O)(=O)c1ccc(Cl)cc1                      =             5.89
3  CN(c1nc2ccccc2c(=O)o1)S(=O)(=O)c1ccc([N+](=O)[O-])cc1                      <             4.00
4  Cc1ccc(S(=O)(=O)N(C)c2nc3ccccc3c(=O)o2)cc1                      =             5.35
5  CN(c1nc2ccccc2c(=O)o1)S(=O)(=O)c1ccc(C(C)(C)C)cc1                      =             5.23
